System: PPARg:RXRa 30nM:10nM, anti-RXR (NR concentration 30 nM, RXRa partner concentration 10 nM)
Experiment: PBM binding z-score (relative to random genomic background probes); higher = stronger binding; sequences stand for … in GC…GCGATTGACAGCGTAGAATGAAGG
recorded.metric: PBM binding z-score

sequence.code: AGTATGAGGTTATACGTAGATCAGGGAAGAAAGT
experimental.system: PPARg:RXRa 30nM:10nM, anti-RXR (NR concentration 30 nM, RXRa partner concentration 10 nM)
recorded.metric: PBM binding z-score
test.value: 0.646

sequence.code: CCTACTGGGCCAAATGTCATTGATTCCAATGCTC
experimental.system: PPARg:RXRa 30nM:10nM, anti-RXR (NR concentration 30 nM, RXRa partner concentration 10 nM)
recorded.metric: PBM binding z-score
test.value: 6.52

sequence.code: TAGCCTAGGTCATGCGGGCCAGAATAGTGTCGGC
experimental.system: PPARg:RXRa 30nM:10nM, anti-RXR (NR concentration 30 nM, RXRa partner concentration 10 nM)
recorded.metric: PBM binding z-score
test.value: 0.103

sequence.code: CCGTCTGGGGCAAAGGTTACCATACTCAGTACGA
experimental.system: PPARg:RXRa 30nM:10nM, anti-RXR (NR concentration 30 nM, RXRa partner concentration 10 nM)
recorded.metric: PBM binding z-score
test.value: 9.6

sequence.code: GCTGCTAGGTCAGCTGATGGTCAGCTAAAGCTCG
experimental.system: PPARg:RXRa 30nM:10nM, anti-RXR (NR concentration 30 nM, RXRa partner concentration 10 nM)
recorded.metric: PBM binding z-score
test.value: -0.292

sequence.code: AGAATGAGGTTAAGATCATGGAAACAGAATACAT
experimental.system: PPARg:RXRa 30nM:10nM, anti-RXR (NR concentration 30 nM, RXRa partner concentration 10 nM)
recorded.metric: PBM binding z-score
test.value: 0.804

sequence.code: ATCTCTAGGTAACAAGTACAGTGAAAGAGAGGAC
experimental.system: PPARg:RXRa 30nM:10nM, anti-RXR (NR concentration 30 nM, RXRa partner concentration 10 nM)
recorded.metric: PBM binding z-score
test.value: 0.696

sequence.code: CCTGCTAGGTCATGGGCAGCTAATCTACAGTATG
experimental.system: PPARg:RXRa 30nM:10nM, anti-RXR (NR concentration 30 nM, RXRa partner concentration 10 nM)
recorded.metric: PBM binding z-score
test.value: 0.94

sequence.code: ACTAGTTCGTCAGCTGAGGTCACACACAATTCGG
experimental.system: PPARg:RXRa 30nM:10nM, anti-RXR (NR concentration 30 nM, RXRa partner concentration 10 nM)
recorded.metric: PBM binding z-score
test.value: 0.594

sequence.code: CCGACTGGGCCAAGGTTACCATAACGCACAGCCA
experimental.system: PPARg:RXRa 30nM:10nM, anti-RXR (NR concentration 30 nM, RXRa partner concentration 10 nM)
recorded.metric: PBM binding z-score
test.value: 0.199

sequence.code: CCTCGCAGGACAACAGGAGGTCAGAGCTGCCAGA
experimental.system: PPARg:RXRa 30nM:10nM, anti-RXR (NR concentration 30 nM, RXRa partner concentration 10 nM)
recorded.metric: PBM binding z-score
test.value: -0.833

sequence.code: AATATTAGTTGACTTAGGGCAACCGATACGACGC
experimental.system: PPARg:RXRa 30nM:10nM, anti-RXR (NR concentration 30 nM, RXRa partner concentration 10 nM)
recorded.metric: PBM binding z-score
test.value: 0.448

sequence.code: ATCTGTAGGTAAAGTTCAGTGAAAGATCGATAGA
experimental.system: PPARg:RXRa 30nM:10nM, anti-RXR (NR concentration 30 nM, RXRa partner concentration 10 nM)
recorded.metric: PBM binding z-score
test.value: 2.41

sequence.code: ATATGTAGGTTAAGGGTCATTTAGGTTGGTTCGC
experimental.system: PPARg:RXRa 30nM:10nM, anti-RXR (NR concentration 30 nM, RXRa partner concentration 10 nM)
recorded.metric: PBM binding z-score
test.value: 10.6

sequence.code: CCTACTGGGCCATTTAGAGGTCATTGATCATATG
experimental.system: PPARg:RXRa 30nM:10nM, anti-RXR (NR concentration 30 nM, RXRa partner concentration 10 nM)
recorded.metric: PBM binding z-score
test.value: 0.977

sequence.code: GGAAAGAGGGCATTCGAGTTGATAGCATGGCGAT
experimental.system: PPARg:RXRa 30nM:10nM, anti-RXR (NR concentration 30 nM, RXRa partner concentration 10 nM)
recorded.metric: PBM binding z-score
test.value: 0.366

sequence.code: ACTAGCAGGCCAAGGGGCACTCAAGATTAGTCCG
experimental.system: PPARg:RXRa 30nM:10nM, anti-RXR (NR concentration 30 nM, RXRa partner concentration 10 nM)
recorded.metric: PBM binding z-score
test.value: 2.5

sequence.code: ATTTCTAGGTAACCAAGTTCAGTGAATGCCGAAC
experimental.system: PPARg:RXRa 30nM:10nM, anti-RXR (NR concentration 30 nM, RXRa partner concentration 10 nM)
recorded.metric: PBM binding z-score
test.value: 0.773

sequence.code: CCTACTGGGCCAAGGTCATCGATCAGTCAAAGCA
experimental.system: PPARg:RXRa 30nM:10nM, anti-RXR (NR concentration 30 nM, RXRa partner concentration 10 nM)
recorded.metric: PBM binding z-score
test.value: 2

sequence.code: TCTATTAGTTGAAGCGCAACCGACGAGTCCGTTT
experimental.system: PPARg:RXRa 30nM:10nM, anti-RXR (NR concentration 30 nM, RXRa partner concentration 10 nM)
recorded.metric: PBM binding z-score
test.value: 3.58

sequence.code: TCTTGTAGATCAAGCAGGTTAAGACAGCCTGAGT
experimental.system: PPARg:RXRa 30nM:10nM, anti-RXR (NR concentration 30 nM, RXRa partner concentration 10 nM)
recorded.metric: PBM binding z-score
test.value: 2.29

sequence.code: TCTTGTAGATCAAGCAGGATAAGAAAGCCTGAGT
experimental.system: PPARg:RXRa 30nM:10nM, anti-RXR (NR concentration 30 nM, RXRa partner concentration 10 nM)
recorded.metric: PBM binding z-score
test.value: 2.58

sequence.code: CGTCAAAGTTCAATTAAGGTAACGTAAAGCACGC
experimental.system: PPARg:RXRa 30nM:10nM, anti-RXR (NR concentration 30 nM, RXRa partner concentration 10 nM)
recorded.metric: PBM binding z-score
test.value: 1.7

sequence.code: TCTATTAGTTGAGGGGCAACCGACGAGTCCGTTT
experimental.system: PPARg:RXRa 30nM:10nM, anti-RXR (NR concentration 30 nM, RXRa partner concentration 10 nM)
recorded.metric: PBM binding z-score
test.value: 3.58

sequence.code: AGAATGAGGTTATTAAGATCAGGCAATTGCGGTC
experimental.system: PPARg:RXRa 30nM:10nM, anti-RXR (NR concentration 30 nM, RXRa partner concentration 10 nM)
recorded.metric: PBM binding z-score
test.value: 0.485

sequence.code: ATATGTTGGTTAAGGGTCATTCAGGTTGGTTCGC
experimental.system: PPARg:RXRa 30nM:10nM, anti-RXR (NR concentration 30 nM, RXRa partner concentration 10 nM)
recorded.metric: PBM binding z-score
test.value: 6.29
